# assayed_target: T1, recombinant human activated Factor VII (FVIIa) (human, UniProt P08709 61-212; P08709 213-466, ten glutamate residues of the Gla domain may be gamma-carboxylated)
# T1 construct: chains tethered by a disulfide bond; also called Factor VIIa; rFVIIa
# T1 sequence 1: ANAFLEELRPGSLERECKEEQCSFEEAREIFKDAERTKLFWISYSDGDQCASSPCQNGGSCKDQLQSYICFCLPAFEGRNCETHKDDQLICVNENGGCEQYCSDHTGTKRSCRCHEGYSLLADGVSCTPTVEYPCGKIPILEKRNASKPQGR
# T1 sequence 2: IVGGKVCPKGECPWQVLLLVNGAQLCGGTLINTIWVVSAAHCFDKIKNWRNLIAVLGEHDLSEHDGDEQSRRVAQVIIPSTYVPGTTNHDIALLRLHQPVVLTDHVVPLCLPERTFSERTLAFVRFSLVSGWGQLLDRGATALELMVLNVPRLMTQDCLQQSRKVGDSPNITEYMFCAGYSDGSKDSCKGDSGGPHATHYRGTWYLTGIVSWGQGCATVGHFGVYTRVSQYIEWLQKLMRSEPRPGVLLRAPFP
# test_method_notes: BLI (Fortebio)
recorded_metric: Kd (nM)
One number for each entry, in nM.

VH SEQ ID NO 570 / VL SEQ ID NO 366 (antibody, IgG4, V domains shown, humanized 11F2; IgG4 S228P/kappa) VH: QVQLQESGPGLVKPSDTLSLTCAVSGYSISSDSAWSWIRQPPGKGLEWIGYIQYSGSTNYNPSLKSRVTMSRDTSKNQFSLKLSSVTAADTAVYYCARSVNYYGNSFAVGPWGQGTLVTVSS VL: EIVLTQSPATLSLSPGERATLSCRASQGLSDYLAWYQQKPGEAPRLLIKYASQPATGIPARFSGSGSGTDFTLTISSLEPEDFAVYYCQNGHSFPLTFGQGTKLEIK    14

// next entry
Recorded Kd of VH SEQ ID NO 610 / VL SEQ ID NO 430 (antibody, IgG4, V domains shown, humanized 11F2; IgG4 S228P/kappa) VH: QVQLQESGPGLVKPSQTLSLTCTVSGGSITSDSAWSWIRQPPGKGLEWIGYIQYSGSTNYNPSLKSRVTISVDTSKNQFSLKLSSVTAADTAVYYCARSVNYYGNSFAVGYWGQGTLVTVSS VL: EIVLTQSPATLSLSPGERATLSCRASQGVSDYLAWYQQKPGQAPRLLIKYASQPATGIPARFSGSGSGTDFTLTISSLEPEDFGVYYCQNGHSFPLTFGQGTKLEIK , please.
1500
